Reference source: patent US20230242496A1

Test system: Jeko-1 (SOX11+)
Test: Cell viability assay (CellTiter-Blue resazurin reduction)
Format: cell-based
Conditions: Homo sapiens, JeKo-1, 72 h, JeKo-1 cells, 20 μM compound, normalized to 0.2% DMSO
Procedure: Cell viability was determined by a fluorometric resazurin reduction method (CellTiter-Blue; Promega, Madison, Wis.) following the manufacturer's instructions. […] Cells were incubated for 72 hours. […] The number of viable cells in each treated well was calculated, based on the linear least squares regression of the standard curve (OD vs. cell concentration). […] The average and mean standard deviation were calculated from three separate experiments. […]
ASSAY READOUT: viability at 20 µM (%)
Just the number in %, nothing appended.

[
  {
    "COMPOUND": "Cc1ccc(NC(=O)c2ccc3c(c2)N(C)C(=O)CS3)cc1S(=O)(=O)N1CCCC1",
    "READOUT UNITS": "%",
    "OBSERVED VALUE": 90.9
  }
]

Query: # query: viability at 20 µM of entry CC1Sc2ccc(C(=O)Nc3cccc(S(=O)(=O)Nc4ccc(C(F)(F)F)cc4)c3)cc2NC1=O (stereo not shown)
Result: 22.2

Query: Suppose we examine the compound CN1C(=O)CSc2ccc(C(=O)Nc3ccc(S(=O)(=O)N4CCCC4)c(Cl)c3)cc21 ; what viability at 20 µM value has been reported?
Result: 16

Query: Look up viability at 20 µM for this compound: CC1Sc2ccc(C(=O)Nc3ccc(S(N)(=O)=O)cc3)cc2NC1=O (stereo not shown)
Result: 101

Query: Sample CC1Sc2ccc(C(=O)Nc3ccc(S(=O)(=O)N4CCCC4)c(Cl)c3)cc2NC1=O (stereo not shown) — what was its viability at 20 µM?
Result: 8.93

Query: Look at this compound and give its reported viability at 20 µM. CN1C(=O)COc2ccc(C(=O)Nc3ccc(S(=O)(=O)N4CCCCC4)cc3)cc21
Result: 90.6

Query: What viability at 20 µM value was documented for this compound, CC1Sc2ccc(C(=O)Nc3ccc(S(=O)(=O)Nc4ccccc4)cc3F)cc2NC1=O (stereo not shown) ?
Result: 90

* * *

test system: Jeko-1 (SOX11+); assay: Cell viability assay (CellTiter-Blue resazurin reduction); type: cell-based; settings: Homo sapiens, JeKo-1, 72 h, JeKo-1 cells, 20 μM compound, normalized to 0.2% DMSO
Binary label based on viability at 20 µM with cut-off 30%: below gives YES, not below gives NO.

Below are worked cases with known answers.
[
  {
    "COMPOUND": "CC1Sc2ccc(C(=O)Nc3cccc(S(=O)(=O)Nc4ccc(N)cc4)c3)cc2NC1=O (stereo not drawn)",
    "CLASS NAME": "NO"
  },
  {
    "COMPOUND": "CC1Sc2ccc(C(=O)Nc3ccc(Cl)c(S(=O)(=O)N(C)C(C)C)c3)cc2NC1=O (stereo not drawn)",
    "CLASS NAME": "YES"
  },
  {
    "COMPOUND": "O=C(Nc1ccc(S(=O)(=O)Nc2ccccc2)cc1)c1ccc2cccnc2c1",
    "CLASS NAME": "NO"
  },
  {
    "COMPOUND": "O=C(Nc1ccc(S(=O)(=O)Nc2ccccc2)cc1)c1ccc2ncccc2c1",
    "CLASS NAME": "YES"
  }
]

Query: Decide: viability at 20 µM of CC1Sc2ccc(C(=O)Nc3cccc(S(=O)(=O)Nc4cccc(F)c4)c3)cc2NC1=O (stereo not drawn) strictly below 30%?
Result: YES

Query: Below 30% on viability at 20 µM? Entry Cc1ccccc1COc1ccc(NC(=O)c2ccc3c(c2)NC(=O)C(C)S3)cc1 (stereo not drawn)
Result: NO

Query: Item CC1Sc2ccc(C(=O)Nc3cccc(S(=O)(=O)N4CCN(C(=O)OC(C)(C)C)CC4)c3)cc2NC1=O (stereo not drawn) : viability at 20 µM beneath 30%, strictly?
Result: NO

Query: Decide: viability at 20 µM of c1ccc(COc2ccc(CNc3ccc4cncnc4c3)cc2)cc1 strictly below 30%?
Result: YES

Query: Field: below-cutoff. Rule: recorded viability at 20 µM strictly less than 30%. Subject: CC1Sc2ccc(C(=O)Nc3ccc(Cl)c(S(=O)(=O)N4CCCC4)c3)cc2NC1=O (stereo not drawn)
Result: YES

* * *

target: (His)6-SOX11-DBD protein (Homo sapiens, UniProt P35716); construct: Recombinant (His)6-SOX11-DBD protein was immobilized; assay: Surface Plasmon Resonance (SPR) assay; format: binding; details: immobilized recombinant (His)6-SOX11-DBD, 25° C., compounds 5-40 μM, mean of three experiments
Sequence (P35716 49-117 limits assumed): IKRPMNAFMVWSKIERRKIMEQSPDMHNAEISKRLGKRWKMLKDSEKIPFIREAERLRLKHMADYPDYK
pKd values for the compounds below.
The quantity pKd is defined as the negative base-10 logarithm of the molar concentration.

[
  {
    "COMPOUND": "CC1Sc2ccc(C(=O)Nc3cccc(CNc4ccc(OS(=O)(=O)F)cc4)c3)cc2NC1=O (stereo not drawn)",
    "OBSERVED VALUE": 5.45
  },
  {
    "COMPOUND": "Nc1ccccc1CC(=O)Nc1cccc(C(=O)Nc2ccc(CN3CCCC3)cc2)c1",
    "OBSERVED VALUE": 4.81
  }
]

Query: For O=C(Nc1cccc(CN2CCCCC2)c1)c1ccc2c(c1)CCCS2 , what is its reported pKd?
Result: 4.62
